System: U-2932
Assay: growth inhibition by drug plus 177Lu-lilotomab satetraxetan (1 - RLU/untreated control) (fraction); higher = stronger inhibition
Conditions: 1000 nM; time (day): 5; 177Lu-lilotomab satetraxetan 1 ug/ml
Structures can show the parent of a compound that is named as a salt.
value_kind: growth inhibition by drug plus 177Lu-lilotomab satetraxetan

1) Cn1cnc2c(F)c(Nc3ccc(Br)cc3Cl)c(C(=O)NOCCO)cc21 [AZD6244 (Selumetinib)]
0.203
2) Nc1cccc2c1C(=O)N(C1CCC(=O)NC1=O)C2=O (centres undefined) [Pomalidomide]
0.414
3) COc1ccc(C2CC(c3ccccc3)=NN2c2ccc(S(N)(=O)=O)cc2)cc1 (centres undefined)
-0.00789
4) CO[C@H]1/C=C\C=C(/C)C(=O)NC2=CC(=O)C(NCCN(C)C)=C(C[C@@H](C)C[C@H](OC)[C@H](O)[C@@H](C)/C=C(\C)[C@@H]1OC(N)=O)C2=O [17-DMAG HCl (Alvespimycin)]
0.988
